assay: Phase I trial: clinical pharmacokinetics in plasma; format: in vivo, human; settings: human, plasma, oral, 60 mg, Single dose day 1, 60 mg, n=5, Geometric Mean (CV%); read-out: AUC0-168

Chem Smiles	AUC(0-t)
Cc1c(C(=O)Nc2ccc(Oc3ccnc4cc(OCC(C)(C)O)ccc34)c(F)c2)c(=O)n(-c2ccccc2)n1C	28700 ng·h/mL

* * *

assay: Phase I trial: clinical pharmacokinetics in plasma; format: in vivo, human; settings: human, plasma, oral, 100 mg, Single dose day 1, 100 mg, n=7, Geometric Mean (CV%); read-out: Vz/F

Chem Smiles	Readout Units	Vd/F
Cc1c(C(=O)Nc2ccc(Oc3ccnc4cc(OCC(C)(C)O)ccc34)c(F)c2)c(=O)n(-c2ccccc2)n1C	L	79.8

Values from paper PMC9632963
